Biological target: rat VAP-1 enzyme (SSAO) (Rattus norvegicus)
Construct: made in house; cell extract used
Sequence (O08590 whole entry): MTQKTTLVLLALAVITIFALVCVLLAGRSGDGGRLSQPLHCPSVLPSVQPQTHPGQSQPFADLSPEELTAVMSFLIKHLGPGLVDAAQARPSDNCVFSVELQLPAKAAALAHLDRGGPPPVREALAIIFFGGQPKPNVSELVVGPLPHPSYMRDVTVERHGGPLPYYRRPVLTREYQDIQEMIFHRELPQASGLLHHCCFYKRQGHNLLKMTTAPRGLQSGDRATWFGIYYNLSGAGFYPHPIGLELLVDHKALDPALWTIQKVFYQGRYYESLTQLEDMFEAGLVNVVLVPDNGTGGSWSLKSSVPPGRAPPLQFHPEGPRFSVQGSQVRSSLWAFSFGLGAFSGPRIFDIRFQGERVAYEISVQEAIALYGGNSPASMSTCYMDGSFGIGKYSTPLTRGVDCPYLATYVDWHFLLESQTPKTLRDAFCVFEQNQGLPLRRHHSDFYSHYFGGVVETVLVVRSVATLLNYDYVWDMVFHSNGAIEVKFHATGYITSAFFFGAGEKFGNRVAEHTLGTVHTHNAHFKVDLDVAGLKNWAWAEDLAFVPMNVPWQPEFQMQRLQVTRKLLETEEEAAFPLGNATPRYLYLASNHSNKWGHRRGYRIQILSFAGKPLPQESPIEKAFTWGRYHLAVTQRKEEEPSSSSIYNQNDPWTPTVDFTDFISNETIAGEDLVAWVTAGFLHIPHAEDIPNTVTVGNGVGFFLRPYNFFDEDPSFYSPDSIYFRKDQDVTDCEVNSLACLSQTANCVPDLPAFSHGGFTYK
Assay: Enzyme activity inhibitory effect on rat VAP-1 enzyme (SSAO), radiochemical-enzyme assay with 14C-benzylamine
Assay type: biochemical
Details: rat VAP-1 (SSAO) cell extract, 14C-benzylamine 1×10^−5 mol/l, 37° C. 2 hours
Structures can show the parent of a compound that is named as a salt.
Hi! Just check whether IC50 is below 2 nM. Below gives yes, equal or above gives no.

Illustrative cases are given below, each with its answer.
Hi there! Is IC50 for CC(=O)Nc1nc(CCc2ccc(COC(=O)NN)c(F)c2)cs1.Cl [Production Example 4, hydrochloride] below 2 nM, do you know?
yes

Strictly below 2 nM in IC50? CC(=O)Nc1nc(CCc2cccc(CCOC(=O)NN)c2)cs1.Cl [Production Example 12, hydrochloride]
yes

Hi there! Is IC50 for CC(=O)Nc1nc(CCc2ccc(CNC(=O)NN)c(F)c2)cs1.Cl [Production Example 20, hydrochloride] below 2 nM, do you know?
yes

Hello, I'm reviewing records and need to know if IC50 of CC(=O)Nc1nc(CCc2cccc(CNC(=O)NN)c2)cs1.Cl [Production Example 27, hydrochloride] is below 2 nM. Could you check?
yes

Is IC50 strictly under 2 nM for the entry CC(=O)Nc1nc(CCc2ccc(CCOC(=O)NN)cc2)cs1.Cl [Production Example 3, hydrochloride] ?
no

Next:
Could you please tell me whether IC50 recorded for CC(=O)Nc1nc(C(=O)Oc2ccc(CCNC(=O)NN)cc2)cs1.Cl [Production Example 26, hydrochloride] is less than 2 nM?
no

Hello, I'm reviewing records and need to know if IC50 of CC(=O)Nc1nc(CNc2ccc(CNC(=O)NN)cc2)cs1 [Production Example 23, dihydrochloride] is below 2 nM. Could you check?
no

----------
Biological target: human VAP-1 enzyme (SSAO) (Homo sapiens, UniProt Q16853)
Construct: made in house; cell extract used
Sequence (Q16853 whole entry): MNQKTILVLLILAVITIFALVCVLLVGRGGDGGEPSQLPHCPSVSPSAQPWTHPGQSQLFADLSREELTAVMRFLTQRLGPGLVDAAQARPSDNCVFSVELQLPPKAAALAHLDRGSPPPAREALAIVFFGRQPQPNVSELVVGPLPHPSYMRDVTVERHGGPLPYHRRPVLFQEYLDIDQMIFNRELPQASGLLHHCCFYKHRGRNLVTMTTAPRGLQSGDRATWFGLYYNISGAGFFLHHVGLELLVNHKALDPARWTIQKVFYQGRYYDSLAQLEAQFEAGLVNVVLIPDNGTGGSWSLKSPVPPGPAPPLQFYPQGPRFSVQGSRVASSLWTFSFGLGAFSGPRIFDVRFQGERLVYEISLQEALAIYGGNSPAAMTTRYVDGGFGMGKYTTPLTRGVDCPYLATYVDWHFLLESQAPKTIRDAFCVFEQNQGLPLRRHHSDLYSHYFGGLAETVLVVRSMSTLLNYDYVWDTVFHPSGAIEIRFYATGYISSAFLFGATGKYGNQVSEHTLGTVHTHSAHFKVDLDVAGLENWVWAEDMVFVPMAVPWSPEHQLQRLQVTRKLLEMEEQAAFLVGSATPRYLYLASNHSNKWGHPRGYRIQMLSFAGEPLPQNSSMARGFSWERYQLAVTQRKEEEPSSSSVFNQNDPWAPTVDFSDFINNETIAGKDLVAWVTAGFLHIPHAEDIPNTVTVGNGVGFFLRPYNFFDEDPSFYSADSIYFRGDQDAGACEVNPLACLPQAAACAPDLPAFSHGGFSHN
Assay: Enzyme activity inhibitory effect on human VAP-1 enzyme (SSAO), radiochemical-enzyme assay with 14C-benzylamine
Assay type: biochemical
Details: human VAP-1 (SSAO) cell extract, 14C-benzylamine 1×10^−5 mol/l, 37° C. 2 hours
Structures can show the parent of a compound that is named as a salt.
parameterMeasured: IC50 (nM)
Please reply with the bare figure in nM and do not write the unit itself.

State the recorded IC50 for this entry: CC(=O)Nc1nc(CCc2ccc(OC(=O)NN)cc2)cs1.Cl [Production Example 1, hydrochloride]
2.5

Bench note: what IC50 did CC(=O)Nc1nc(CCc2cccc(CCNC(=O)NN)c2)cs1.Cl [Production Example 28, hydrochloride] show?
44.3

Recorded IC50 for CC(=O)Nc1nc(CCc2ccc(COC(=O)NN)c(F)c2)cs1.Cl [Production Example 4, hydrochloride] , please?
0.8

// lookup IC50 for CC(=O)Nc1nc(CCc2ccc(COC(=O)NN)cc2F)cs1.Cl [Production Example 5, hydrochloride]
1.2

GET /values?readout=IC50&item= CC(=O)Nc1nc(CCc2cccc(CCOC(=O)NN)c2)cs1.Cl [Production Example 12, hydrochloride]
3.2

More entries:
Quick one: IC50 of CC(=O)Nc1nc(CCc2ccc(CCOC(=O)NN)s2)cs1 [Production Example 14, hydrochloride] ?
5.1

Dear colleague, I am looking for the recorded IC50 of the following compound: CC(=O)Nc1nc(CCc2cc(CCCOC(=O)NN)cs2)cs1.Cl [Production Example 16, hydrochloride]
16.7
